# SYSTEM_NAME: FLuc-N-HiBiT (firefly luciferase) (Photinus pyralis, UniProt P08659, form not given/L550V)
# Sequence (P08659 2-550 L550V, form open): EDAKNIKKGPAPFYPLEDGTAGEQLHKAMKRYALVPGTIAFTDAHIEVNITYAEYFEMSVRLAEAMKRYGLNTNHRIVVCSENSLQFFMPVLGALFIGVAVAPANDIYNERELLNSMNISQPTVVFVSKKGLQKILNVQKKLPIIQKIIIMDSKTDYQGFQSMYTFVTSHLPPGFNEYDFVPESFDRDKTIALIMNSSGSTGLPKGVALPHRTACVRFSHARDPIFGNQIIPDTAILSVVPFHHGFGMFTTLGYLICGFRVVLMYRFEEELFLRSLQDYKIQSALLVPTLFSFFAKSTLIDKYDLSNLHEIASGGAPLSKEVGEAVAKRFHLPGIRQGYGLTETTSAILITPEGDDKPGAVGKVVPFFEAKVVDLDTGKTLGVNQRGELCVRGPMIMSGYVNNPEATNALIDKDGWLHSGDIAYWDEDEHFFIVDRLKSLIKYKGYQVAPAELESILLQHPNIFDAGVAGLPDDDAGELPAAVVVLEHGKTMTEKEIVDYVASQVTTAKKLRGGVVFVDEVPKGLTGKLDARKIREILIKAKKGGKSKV
# EXPERIMENT_SUMMARY: SDR assay, FLuc-N-HiBiT
# APPLIED_CONDITIONS: SDR; ATP-independent imidazo[2,1-b]thiazole (clade O) series
ASSAY_READOUT: % Activity (max response) (%)

Cc1ccc(Cc2cn3cc(-c4ccccc4)nc3s2)cc1 [Compound 98] :: 56.11

A. Fc1ccc(Cc2cn3cc(-c4ccccc4)nc3s2)cc1 [Compound 2]
B. Fc1ccc(Cc2cn3cc(-c4ccc(F)cc4)nc3s2)cc1 [Compound 34]
C. Clc1ccc(-c2cn3cc(Cc4ccccc4)sc3n2)cc1 [Compound 4]
Hello, I need these entries ordered by % Activity (max response), highest reading first. Thanks! Your reply should list the labels following the order given in the request.
C, A, B

a. Fc1ccc(-c2cn3cc(Cc4ccccc4Cl)sc3n2)cc1 [Compound 30]
b. Fc1ccccc1Cc1cn2cc(-c3ccc(Cl)cc3)nc2s1 [Compound 6]
c. Brc1ccc(-c2cn3cc(Cc4ccccc4)sc3n2)cc1 [Compound 36]
Hello, I need these entries ordered by % Activity (max response), highest reading first. Thanks! Your reply should list the labels following the order given in the request.
a, b, c
(a: 49.79%, b: 29.23%, c: 18.18%)

###

# SYSTEM_NAME: ABL1-N-HiBiT kinase domain (Homo sapiens)
# Sequence (P00519 233-500): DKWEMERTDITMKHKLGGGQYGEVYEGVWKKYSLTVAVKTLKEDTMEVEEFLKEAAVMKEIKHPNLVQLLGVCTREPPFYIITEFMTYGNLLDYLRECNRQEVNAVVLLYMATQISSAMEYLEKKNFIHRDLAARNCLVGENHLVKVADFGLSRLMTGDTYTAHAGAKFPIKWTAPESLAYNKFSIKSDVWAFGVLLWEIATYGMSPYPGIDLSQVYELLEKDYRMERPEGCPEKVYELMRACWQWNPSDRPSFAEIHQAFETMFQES
# EXPERIMENT_SUMMARY: SDR assay, ABL1-N-HiBiT
# APPLIED_CONDITIONS: ABL1-N-HiBiT qHTS; average maximal SDR response
ASSAY_READOUT: SDR Ave Max Response

Illustrative cases are given below, each with its answer.
N#Cc1ccc2ncnc(NCCc3ccccc3)c2c1 :: -0.36
O=[N+]([O-])O[C@H]1CO[C@H]2[C@@H]1OC[C@H]2O[N+](=O)[O-] [Isosorbide dinitrate] :: 6.72

P. CN1CCN(Cc2ccc(-c3cnc4[nH]cc(-c5ccc6[nH]ccc6c5)c4c3)cc2)CC1
Q. C=CC(=O)Nc1cccc(Oc2nc(Nc3ccc(N4CCN(C)CC4)cc3OC)ncc2Cl)c1
From the items above, decide which of P and Q has the lower SDR Ave Max Response reading. Answer with the label corresponding to your selection.
Q

###

# SYSTEM_NAME: FLuc-C-HiBiT (Photinus pyralis, UniProt P08659)
# Construct: firefly luciferase with C-terminal HiBiT tag, E. coli expressed
# Sequence (P08659 whole entry, looked up): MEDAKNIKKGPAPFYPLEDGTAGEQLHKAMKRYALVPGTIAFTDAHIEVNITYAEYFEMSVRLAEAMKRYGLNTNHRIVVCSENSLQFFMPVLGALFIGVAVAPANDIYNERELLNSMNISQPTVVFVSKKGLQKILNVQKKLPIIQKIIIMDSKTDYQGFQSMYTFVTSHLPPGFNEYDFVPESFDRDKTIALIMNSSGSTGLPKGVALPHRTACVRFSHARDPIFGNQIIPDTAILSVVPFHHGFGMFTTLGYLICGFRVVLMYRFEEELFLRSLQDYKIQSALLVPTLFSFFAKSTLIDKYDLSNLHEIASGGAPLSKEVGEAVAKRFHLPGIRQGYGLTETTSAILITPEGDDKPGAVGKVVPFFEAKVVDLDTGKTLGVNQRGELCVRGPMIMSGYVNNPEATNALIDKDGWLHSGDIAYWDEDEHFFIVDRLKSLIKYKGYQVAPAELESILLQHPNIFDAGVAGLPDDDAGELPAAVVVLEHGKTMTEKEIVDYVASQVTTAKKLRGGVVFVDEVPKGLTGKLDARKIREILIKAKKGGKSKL
# EXPERIMENT_SUMMARY: biochemical
# APPLIED_CONDITIONS: enzyme activity, 10 uM ATP; read-out: IC50 or SDR50 (mM) / FLuc E
ASSAY_READOUT: IC50 (mM)

Illustrative cases are given below, each with its answer.
Cn1ccnc1CN1C(=O)CO[C@H](c2ccc(NC(=O)Nc3ccccc3)cc2)[C@H]1CO :: 0.014
Cc1ccc(-c2noc([C@@H]3Cc4[nH]cnc4CN3C(=O)Nc3cccc(F)c3)n2)cc1 :: 0.0202
CN(Cc1ccccc1)C(=O)c1cccc2c1CCN2C(=O)Nc1ccccc1 :: 0.000279
CCOc1ccc(-c2cc(CCCC(=O)NCCc3ccc(OCC)c(OCC)c3)no2)cc1 :: 0.00351
O=C(c1cc(-c2ccc(F)cc2)nc2ccccc12)N1CCC(Cc2nncn2CC2CC2)CC1 :: 0.00881
COc1ccc(-c2cc(N3CCCC(NC(=O)c4cc(OC)c(OC)c(OC)c4)C3)[nH]n2)cc1 (centres unmarked) :: 0.00556
COc1ccc(-c2noc([C@@H]3C[C@@H](O)CN3Cc3cc4ccccc4o3)n2)cc1 :: 0.0161
O=C(Nc1cccc(-c2ccc(N3CCOCC3)nn2)c1)Nc1cccc(Cl)c1F :: 0.00556

P. CN1CCN(c2ccc(-c3cc4c(ccn4C)c(C(=O)NCC4CCC(=O)N4)n3)cc2)CC1 (centres unmarked)
Q. CC1CCCN(c2ncnc3c2cnn3-c2ccc(F)cc2)C1 (centres unmarked)
R. Cc1ccc(NC(=O)Nc2ccc(C)n(CC(=O)NC(C)(C)C)c2=O)cc1
S. CSC(=S)Nc1ccc(-c2nc3ccc(C)cc3s2)cc1
Please order the records by their reported IC50, lowest number first. Your reply should list the labels following the order given in the request.
Q, S, R, P
(Q: 0.0007 mM, S: 0.00248 mM, R: 0.00394 mM, P: 0.0157 mM)

###

# SYSTEM_NAME: P. pyralis FLuc (Photinus pyralis)
# EXPERIMENT_SUMMARY: FLuc enzymatic luminescence assay, P. pyralis FLuc
# Format: biochemical
# APPLIED_CONDITIONS: FLuc enzymatic assay; Clade S follow-up
Measured Efficacy (%) FLuc E of individual entries
Express the result in % but write the number alone.

Illustrative cases are given below, each with its answer.
CCCCNC(=O)C1CCN(C(=O)c2ncn3c2COC(c2ccccc2)C3)CC1 (stereo not shown) [NCGC00449772-01] :: -88.46
COc1ccc(C2Cn3cnc(C(=O)N4CCC(C(=O)NC5CCCCC5)CC4)c3CO2)cc1 (stereo not shown) [NCGC00449860-01] :: 0.00
O=C(NC1CCCC1)C1CCN(C(=O)c2ncn3c2COC(c2ccc(Cl)cc2)C3)CC1 (stereo not shown) [NCGC00449843-01] :: -13.86
Cc1ccccc1CNC(=O)C1CCN(C(=O)c2ncn3c2COC(c2ccccc2)C3)CC1 (stereo not shown) [NCGC00449798-01] :: -85.12

For the molecule COc1ccc(C)cc1NC(=O)C1CCN(C(=O)c2ncn3c2COC(c2ccc(F)cc2)C3)CC1 (stereo not shown) [NCGC00449936-01] , what Efficacy (%) FLuc E is on record?
-99.49

Could you do the same for O=C(NCc1ccccc1)C1CCN(C(=O)c2ncn3c2COC(c2ccc(F)cc2)C3)CC1 (stereo not shown) [NCGC00449813-01] , please?
-31.52

Could you do the same for CCCCNC(=O)C1CCN(C(=O)c2ncn3c2COC(c2ccc(F)cc2)C3)CC1 (stereo not shown) [NCGC00449812-01] , please?
-17.96

Could you do the same for COCCCNC(=O)C1CCN(C(=O)c2ncn3c2COC(c2ccc(OC)cc2)C3)CC1 (stereo not shown) [NCGC00449877-01] , please?
0.00

Could you do the same for CCOc1cccc(CNC(=O)C2CCN(C(=O)c3ncn4c3COC(c3ccccc3)C4)CC2)c1 (stereo not shown) [NCGC00449780-01] , please?
-78.48

Could you do the same for O=C(NCc1ccncc1)C1CCN(C(=O)c2ncn3c2COC(c2ccccc2)C3)CC1 (stereo not shown) [NCGC00449800-01] , please?
-91.84

Could you do the same for O=C(NCc1cccs1)C1CCN(C(=O)c2ncn3c2COC(c2ccccc2)C3)CC1 (stereo not shown) [NCGC00449792-01] , please?
-100.37

Could you do the same for CCc1ccc(CNC(=O)C2CCN(C(=O)c3ncn4c3COC(c3ccccc3)C4)CC2)cc1 (stereo not shown) [NCGC00449775-01] , please?
-61.62

Could you do the same for COc1cccc(CNC(=O)C2CCN(C(=O)c3ncn4c3COC(c3ccc(C)cc3)C4)CC2)c1 (stereo not shown) [NCGC00449886-01] , please?
-31.42

Could you do the same for CC(C)c1cccc(NC(=O)C2CCN(C(=O)c3ncn4c3COC(c3ccccc3)C4)CC2)c1 (stereo not shown) [NCGC00449908-01] , please?
-95.10

Could you do the same for O=C(NC1CCCCC1)C1CCN(C(=O)c2ncn3c2COC(c2ccc(F)cc2)C3)CC1 (stereo not shown) [NCGC00449807-01] , please?
-25.30

Could you do the same for O=C(NCC1CC1)C1CCN(C(=O)c2ncn3c2COC(c2ccccc2)C3)CC1 (stereo not shown) [NCGC00449799-01] , please?
-97.90

Could you do the same for COc1ccc(C2Cn3cnc(C(=O)N4CCC(C(=O)NCc5cccc(C)c5)CC4)c3CO2)cc1 (stereo not shown) [NCGC00449879-01] , please?
0.00

Could you do the same for COc1ccc(C2Cn3cnc(C(=O)N4CCC(C(=O)NC(C)C)CC4)c3CO2)cc1 (stereo not shown) [NCGC00449857-01] , please?
-19.61

Could you do the same for COc1ccc(CNC(=O)C2CCN(C(=O)c3ncn4c3COC(c3ccccc3)C4)CC2)cc1 (stereo not shown) [NCGC00449778-01] , please?
-88.62

Could you do the same for O=C(NC1CCCCCCC1)C1CCN(C(=O)c2ncn3c2COC(c2ccccc2)C3)CC1 (stereo not shown) [NCGC00449770-01] , please?
-92.12

Could you do the same for Cc1cccc(NC(=O)C2CCN(C(=O)c3ncn4c3COC(c3ccccc3)C4)CC2)c1 (stereo not shown) [NCGC00449902-01] , please?
-97.06

Could you do the same for O=C(NC1CCCCC1)C1CCN(C(=O)c2ncn3c2COC(c2ccc(Cl)cc2)C3)CC1 (stereo not shown) [NCGC00449844-01] , please?
-39.79

Could you do the same for CC1CCC(NC(=O)C2CCN(C(=O)c3ncn4c3COC(c3ccc(Cl)cc3)C4)CC2)CC1 (stereo not shown) [NCGC00449845-01] , please?
0.00
